Source listed as patent US20120172340A1.

Molecular target: UniProt:Q9NXA8
Sequence (Q9NXA8 37-310): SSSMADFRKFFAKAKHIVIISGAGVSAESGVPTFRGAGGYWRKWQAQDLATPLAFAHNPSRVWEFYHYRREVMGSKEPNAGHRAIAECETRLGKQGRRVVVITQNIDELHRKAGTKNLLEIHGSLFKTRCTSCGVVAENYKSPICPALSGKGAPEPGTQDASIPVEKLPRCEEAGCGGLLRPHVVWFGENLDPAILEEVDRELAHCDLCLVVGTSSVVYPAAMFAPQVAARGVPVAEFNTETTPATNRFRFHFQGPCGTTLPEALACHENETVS
Test: SIRT5 rate measurement, fluorogenic p53-382 peptide deacetylation
Type: biochemical
Parameters: His6 (histidine tag, 2.5 kDa) (N); made in house; host or cells: E. coli
Settings: 200 μM test compounds; 500 μM NAD+, 100 μM p53-382 peptide
reported endpoint: SIRT5 Ratio of Control Rates Mean ± SE Compounds at 200 μM
Reply briefly: the number, and no unit.

| compound | value measured |
| --- | --- |
| Cc1ccc(/C=C/c2cc(O)cc(O)c2)cc1 [BML-228, 3,5-Dihydroxy-4′-methyl-trans-stilbene] | 8.12 |
| COC(=O)c1ccc(/C=C/c2cc(O)cc(O)c2)cc1 | 4.50 |
| CC(C)c1ccc(/C=C/c2cc(O)cc(O)c2)cc1 | 8.41 |
| Oc1cc(O)cc(/C=C/c2ccc3ccccc3c2)c1 | 2.47 |

Kindly note the recorded SIRT5 Ratio of Control Rates Mean ± SE Compounds at 200 μM for COc1cc(O)cc(/C=C/c2ccc(NC(C)=O)cc2)c1 , which is 3.10

Kindly note the recorded SIRT5 Ratio of Control Rates Mean ± SE Compounds at 200 μM for CC(=O)Nc1ccc(/C=C/c2cc(O)cc(O)c2)cc1 , which is 2.26

Kindly note the recorded SIRT5 Ratio of Control Rates Mean ± SE Compounds at 200 μM for CC(Cc1ccc(O)c(O)c1)C(C)Cc1ccc(O)c(O)c1 (stereo not drawn) [NDGA, Nordihydroguaiaretic acid] , which is 1.91

Kindly note the recorded SIRT5 Ratio of Control Rates Mean ± SE Compounds at 200 μM for O=C(/C=C/c1ccc(O)c(O)c1)c1ccc(O)cc1O [Butein, 3,4,2′,4′-Tetrahydroxychalcone] , which is 2.19

Kindly note the recorded SIRT5 Ratio of Control Rates Mean ± SE Compounds at 200 μM for O=[N+]([O-])c1ccc(/C=C/c2cc(O)cc(O)c2)cc1 [BML-229, 3,5-Dihydroxy-4′-nitro-trans-stilbene] , which is 3.43
